Entry source: a melting point compilation (Tetko et al.; mined from patent text by program, amines drawn as free bases though some values may be those of a salt)

Property: melting point

Entry `CCOP(=O)(/C=C/c1cn(CC)nc1OCc1ccc(OCc2nc(-c3ccco3)oc2C)c(OC)c1)OCC` has what melting point?
82 to 84 °C

Continue with `C=Cc1nc(C(=O)OC)c(Cl)c(N)c1F`
68 to 71 °C

Continue with `O=C(O)CCCC=Cc1nn(-c2ccc(Cl)cc2)c2c1CCC2`
132 to 134 °C

###

Property: melting point

Entry `Nc1cc(-n2ncc(Cl)c(Cl)c2=O)c(F)cc1Cl` has what melting point?
186 °C

Continue with `CN1CCC(N2C(=O)c3cc(Cl)ccc3Sc3ccccc32)CC1`
164 to 165 °C

Continue with Cc1c2n(c3ccccc13)C(=O)C(Cc1c[nH]cn1)CC2 (configuration not stated)
156 to 157 °C

Continue with `CC(C)(C)OC(=O)N1CCc2cc(N)c(N)cc2CC1`
147 to 149 °C

Continue with `CCCN=C1SC(=CC(=O)O)C(=O)N1CCC`
101 to 103 °C

Continue with CCC(=O)C1CCC2C3CCC4CC(=O)CCC4(C)C3C(=O)CC12C (configuration not stated)
148 °C

Continue with `CC(=O)Nc1ccc(OCCCBr)cc1`
120 °C

Continue with `Cc1c(-c2ccccc2)oc2c(CN(C)CCCl)cccc2c1=O`
118 to 120 °C

Continue with `COc1cccc2c(=O)c(C(C)=O)c[nH]c12`
287 to 289 °C

Continue with `CCOC(=O)Cn1cc2c(n1)CCN(C(=O)OC(C)(C)C)C2`
90 to 91 °C

Continue with `CCCc1c(OCC(=N)OCC)ccc(C(C)=O)c1O`
50 to 52 °C

Continue with `Oc1ccc(-c2ncc3ncc(-c4ccoc4)cc3n2)cc1`
> 268 °C

Continue with `O=C1COC(=O)C1=Cc1cccc(C(F)(F)F)c1`
108 to 109 °C

Continue with `CC(=O)C(C(C)=O)[C@@H]1NC(=O)[C@@H]1C(C)(C)O`
109 to 110 °C

Continue with `O=C(Nc1ccc(Cl)cn1)c1cn2nc(N3CCN(C(=O)c4ccccc4C(F)(F)F)CC3)ccc2n1`
265 to 268 °C

Continue with O=C1Nc2c(F)cc(F)cc2C1c1ncnc2c1cnn2C1CCCC1 (configuration not stated)
> 300 °C

Continue with Cc1nc2c3c(c(CO)cn2c1C)CCC(c1ccccc1)C3 (configuration not stated)
290 to 292 °C

###

Please provide measured melting point for the entries that follow.

Entry `Cc1c(C(=O)N(CC(=O)O)c2ccc(N3CCC(O)CC3)c(C#N)c2)cnn1-c1ccc(F)cc1` has what melting point?
155 to 158 °C

Continue with `CCCNC(=O)CCCc1ccc2c(c1)c(Cc1ccc(C(=O)OC)cc1OC)cn2CCC`
100 °C

Continue with `Cc1cc(Nc2ccnc(Nc3ccc(S(=O)(=O)N(CCN4CCCC4)C4CCN(C)CC4)cc3)n2)ccc1F`
93 to 103 °C

Continue with `COC(=O)c1c([N+](=O)[O-])cccc1S(=O)(=O)N(C)CCO`
98 to 101 °C

###

Please provide measured melting point for the entries that follow.

Entry `CC1(C)Cc2cccc(OC(=O)Cl)c2O1` has what melting point?
85 to 87.5 °C

Continue with `CC(C)Cn1c(=O)[nH]c(=O)c2nccnc21`
200 to 201 °C

Continue with `CCCN1C(=O)N2C[C@@H](Cc3ccccc3)N=C2c2c1nc(C=O)n2Cc1ccccc1`
184 to 185 °C

Continue with `COc1ccc(CC(=O)Nc2c(-c3cc(Cl)ccc3O)c3cc(C(F)(F)F)ccc3[nH]c2=O)cc1`
172 to 175 °C

Continue with `Cn1ncnc1COc1nc2c(cc1C1CCC1)nnn2-c1c(F)cccc1F`
140 to 144 °C

Continue with COC(=O)C1=C(CCc2ccccc2)NC(CC(=O)NCCO)=C(C(=O)OC)C1c1c(Cl)cccc1Cl (stereo not drawn)
192 to 194 °C

Continue with `COc1ccc(C(=O)c2cccc(CC(=O)O)c2N)cc1`
117 to 118 °C

Continue with COC(=O)COc1ccc(CC(C)NCC(O)c2cccc(C(F)(F)F)c2)cc1C (stereo not drawn)
75 to 79 °C

Continue with `CC(C)(C)OC(=O)N1CCC[C@@H]1Cc1cccc2ccc(N)cc12`
157 to 158 °C

Continue with `O=C(O)C1=CCN2C=CC=CC2=C1`
258 to 262 °C

Continue with `O=C(O)[C@@H]1CS[C@@H](CS)C1`
54.3 to 55.9 °C

Continue with `O=C(O)CCc1ccc(-c2nc(=O)c3ccccc3s2)nc1`
232 °C

Continue with `O=C(O)Cc1ccc2c(c1)Cc1cccnc1O2`
218 °C
